# target_or_test_system: E. coli RNase P holoenzyme (M1 P RNA + rnpA protein)
# Sequence: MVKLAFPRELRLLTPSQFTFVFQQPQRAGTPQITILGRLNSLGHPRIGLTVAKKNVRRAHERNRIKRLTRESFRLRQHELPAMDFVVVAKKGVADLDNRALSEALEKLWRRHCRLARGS
# test: relative kcat/Km (krel) vs genomic leader AAAGAU (relative (reference leader = 1)); higher = faster RNase P cleavage
# measurement_parameters: fraction of substrate reacted: ~26-29% (28.66% repeat 1, 26.4% repeat 2)
Over roughly 4,100 sequences, “relative kcat/Km (krel) vs genomic leader AAAGAU” has its median near 1.7; the highest 2% begin near 6.5. Only a selection was taken, and the highest values are over-represented in it overall.
Catalogue of sequences with associated relative kcat/Km
reported_property: relative kcat/Km

{"sequence_chain": "GTGACT", "endpoint_value": 1.08}
{"sequence_chain": "TCCATT", "endpoint_value": 7.33}
{"sequence_chain": "AACTCC", "endpoint_value": 4.38}
{"sequence_chain": "CACTTT", "endpoint_value": 6.22}
{"sequence_chain": "TTGCCT", "endpoint_value": 2.09}
{"sequence_chain": "ATCAAA", "endpoint_value": 7.44}
{"sequence_chain": "CCACCC", "endpoint_value": 2.49}
{"sequence_chain": "GGCAAA", "endpoint_value": 3.46}
{"sequence_chain": "TTCCCA", "endpoint_value": 4.97}
{"sequence_chain": "CAGCTT", "endpoint_value": 2.33}
{"sequence_chain": "ACCGTA", "endpoint_value": 4.07}
{"sequence_chain": "GTCAAA", "endpoint_value": 8.75}
{"sequence_chain": "GTCGAG", "endpoint_value": 4.03}
{"sequence_chain": "ACATCT", "endpoint_value": 4.12}
{"sequence_chain": "TACTTT", "endpoint_value": 6.8}
{"sequence_chain": "TGGCGG", "endpoint_value": 0.962}
{"sequence_chain": "ATCGAT", "endpoint_value": 3.36}
{"sequence_chain": "AAAATC", "endpoint_value": 1.37}
